- Method notes: yeast display, Sf9 membrane polyspecificity reagent, FACS + sequencing; frameworks hold sequencing errors
Metric name: polyreactivity (PSR sort gate)

Reference set, count: 4
QVQLVESGGGLVQAGGSLRLSCAASGITFHRYDMGWYRQAPGKERELVADITWSGGSTYYADSVKGRFTISRDNAKNTVYLQMNSLKPEDTSVYYCAADASTYTYTPYDYWGQGTQVTVSS    low polyreactivity
QVQLVESGGGLVQAGCSLRLSCAASGSIFSYYDMGSYRQAPGKERELVAGISRGGSTNYADSVKGRFTISRDNAKNTVYLQMNILKPEDTAVYYCNADQSSRTYPFRLSRRSLLYGYWGLGTQVTVSS    low polyreactivity
QVQLVESGGGLVQAGGSLRLSCAASGRIFSLNAMGWYRQAPGKERELVAGIRKRGGSTYYADSVKGRFTISRDNAKNTVYLQMNSLKPEDTAVYYCAARFYYGPGGYTMYYWGQGTQVTVSS    high polyreactivity
QVQLVESGGGLVQAGGSLRLSCSASGLIFWAYAMGWYRQAPGKERELVAAINWRGGSTYYADSVKGRFTISRDNAKNTVYLQMNSLKPEDTAVYYCNTDFQLGEGGSYGYDYWGQGTQVTVSS    low polyreactivity

Could you now consider this next sequence?
Problem: Which polyreactivity (PSR sort gate) value belongs to `QVQLVESGGGLVQAGGSLRLSCAASGNIFAINAMGWYRQPPGKERELVAAISSRGGSTTYADSVKGRFTISRDIAKNTVYLQMNSLKPEDTAVYDCAADFVRDRFFRYDYWGQGTQVTVSS` ?
Result: high polyreactivity

----------
- Method notes: yeast display, Sf9 membrane polyspecificity reagent, FACS + sequencing; frameworks hold sequencing errors
Metric name: polyreactivity (PSR sort gate)

QVQLVESGGGLVQAGGSLRLSCADSGYIFYYNAMGWYRQAPGKERDLVATITSGGSTYYADSLKGRFTISRDNAKNTVYLQMNSLKPEDTAVYYCAAPSQSIRYTYIRSYYWGQGTQVTVSS    low polyreactivity
QVHLVESRGGLVQAGGSLRLSCAASGFIFRWYAMGCYRQAPGKERELVAAISSSSGSTYYADSVKGRFTISRDNAKNTVYLQMNSLKPEDTAVYYCAAESNRRFEGEYWGQGTQVTVSS    high polyreactivity
QVQLVESGGGLVQAGGSLRLSCAASGSTFHGNAMGWYRQAPGKERELVAAISRSGGSTYYADSVKGRFTISRDNAKNTVYLQMNSLKPEDTAVYYCAAETVYKWWYDYYYWGQGTQVTVSS    high polyreactivity
QVQLVESGGGLVQAGGSLRLSCAASGFIYTRNAMGWDRQAPGQERELVAAITSSGGSTYYADTVKGRFTISRDNAKNTVYLQMNSLKREDTAVYYCARGKSVGFNYWGQGTQVTVSS    high polyreactivity

Problem: Which polyreactivity (PSR sort gate) value belongs to `QVQLVESGGGLVQAGGSLRLSSAAYGRTFRPYAMGWYRQAPGKERELVAAIDSSGTSTYYADSVKGRFTISLDNAKNTVYLQMNSLKPEDTAVYYCAAGSDPTGRRYDYWGQGTQVTVSS` ?
Result: low polyreactivity

Problem: Which polyreactivity (PSR sort gate) value belongs to `QVQLVESGGGLVQAGGSLRLSCAASGRTFYVNAMGWYRQAPGKERELVATITDRGGRTYYADSVKGRFTISRDNAKNTVYLQMNSLKPEDTAVYYCAATRWYEVDYWGQGTQVTVSS` ?
Result: low polyreactivity

Problem: Which polyreactivity (PSR sort gate) value belongs to `QVQLVESGGGLVQAGGSLRLSCAASGSIFDSNAMGWYRQAPGKERELVASIDRGGDTNYADSVKGRFTISRDNAKNTVYLQMNSLKPEDTAVYYCAAYYYKWVWIGMDYWGQGTQVTVSS` ?
Result: low polyreactivity

Problem: Which polyreactivity (PSR sort gate) value belongs to `QVQLVESGGGLVQAGGSLRLSCAASGITFISYAMGWYRQAPGKERELVAGITSDDSTSYADSVKGRFTISRDNAKNTVYLQMNSVKPEDTAVYYCAARSYTLRTSTGRLYRYYYWGQGTQVTVSS` ?
Result: high polyreactivity

Problem: Which polyreactivity (PSR sort gate) value belongs to `QVQLVESAGGLVQAGGSLRLSCAASGSTFPFYAMGWYRPAPGKERELVAAISASGVRTYYADSVKGRFTISRDNAKNTVYLQMNSLKPEDTAVDYCNRVYSTSRITQYEFDYWGQGTQVTVSS` ?
Result: low polyreactivity

Problem: Which polyreactivity (PSR sort gate) value belongs to `QVQLVESGGGLVQAGGSHRLSCAASGRINYNYAMGWYRQAPGKERELVAAISGSGGSTYYADSVKARFTISRDNAKNTVYLQMNSLKPEDTAVYYCSTSGPQYDSRNFDYWGQGTQVNVSS` ?
Result: low polyreactivity

Problem: Which polyreactivity (PSR sort gate) value belongs to `QVQLVESGGGLVQAGGSLRLSCAASGIIFVINAMGWYRQAPGKERELVATITGSGTTNYADSVKGRFTISRDNAKNTVYLQMNSLKPEDTAVYYCARDDTEYARTGAYDYWGQGTQVTVSS` ?
Result: low polyreactivity

Problem: Which polyreactivity (PSR sort gate) value belongs to `QVQLVESGGGLVQAGGSLRLSCAASGSTFKVYAMGWYRQAPGKERELVATISKSGSTYADSVKGRFTISRDNAKNTVYLQMNCLKPEDTAVYYCAADLYTYPRTRRRAYGYWGQGTQVTVSS` ?
Result: high polyreactivity

Problem: Which polyreactivity (PSR sort gate) value belongs to `QVQLVESGGGLVQAGGSLRLSCAASGRTLSANAMGWYRQAPGKERELVATISTRGGRTYYADSVKGRFTISRDNAKNTVYLQMNSLKPEDTAVYYCAVTIRAKYTLKEDYWGQGTQVNVSS` ?
Result: low polyreactivity

Problem: Which polyreactivity (PSR sort gate) value belongs to `QVQLVESGGGLVQAGGSLRLSSAASGSIFLLYAKGWDRQAPGKERELVAAISRSGDSTHYADSVKGRFTISRDNAKNTVYLQMNSLQPEDTAVYYCAADGYDPYGGLYAYWGHGTQVTVSS` ?
Result: low polyreactivity

Problem: Which polyreactivity (PSR sort gate) value belongs to `QVQLVESGGGLVQAGGSLRLSCAASGFIFVFYDMGWYRQAPGKERELVAGITRNDGSTYYADSVKGRFKISRDNAKNTVYLLMNSLKPEDTAVYYCAADRVRRNDKLAYDYWGQGTQVTVSS` ?
Result: low polyreactivity

Problem: Which polyreactivity (PSR sort gate) value belongs to `QVQLVESGGGLVQAGGRLRISCAASGRIFPYNAMGWYIQAPGKERELVAAINWSGGSTYYADSVKGRFTISRDNAKNTVYLQMNSLKPEDTAVYYCAVKTVRSSSRNYWGQGTQVTVSS` ?
Result: high polyreactivity

Problem: Which polyreactivity (PSR sort gate) value belongs to `QVQLVESCGGLVQAGGSLRLSCAASGSTFYRNAMGWYRQAPGKEREFVAAISFRGGGTYADSVKGRFTISRDNAKNTVYLQMNSLKPEDTAVYYCAADHLSYRRRYEYWGQGTQVTVSS` ?
Result: low polyreactivity

Problem: Which polyreactivity (PSR sort gate) value belongs to `QDQLVESGGGLVQAGGSLRLSCAASGFTFRYYAMGWYRQAPGKEREFVAAITQSGGSTYYADSVKGRFTISRDNAKNTVYLQMNSLKPEDTAVYYCNTARVKYRWYNYWGQGTQVTVSS` ?
Result: high polyreactivity

Problem: Which polyreactivity (PSR sort gate) value belongs to `QVQLVESGGGLVQAGGSLRLSCAASGSISSQYAMGWYRQAPGKERELVAAISYSGGSTYYADSVKGRFTISRDNAKNTVYLQMNSLKPEDTAVYYCAAETSYYTRWFDGHYYYWGQGTQVTVSS` ?
Result: high polyreactivity

Problem: Which polyreactivity (PSR sort gate) value belongs to `QVQLVESGGGLVQAGGRLRLICSASGRIIKDNAMGWYRQAPGKERELVADISSSGGSTYYADSVKGRFTISRDNAKNTVYLQMNSLKPEDTAVYYFAKYRYPSRLYSFPLGYDYWGQGTQVTLSS` ?
Result: high polyreactivity

Problem: Which polyreactivity (PSR sort gate) value belongs to `QVQLVESGGGLVQAGGSLRLSSAASGSTFYYNTMGWSRQAPGKERELVAAISSSGGTTYYADSVKGRFTISRDNAKNTVYLQMNSLKPEDTAVYYCNVATIWYSYARGYGYWGQGTQVTVSS` ?
Result: high polyreactivity

Values compiled from the nanobody polyreactivity screen of Harvey et al. (2022).
